Every entry's value here was drawn from patent EP4631938A1.

Reported values of pKi for individual entries
- systemTested: human recombinant 5-HT2A receptor (Homo sapiens)
- Construct: expressed in transfected cells; host or cells: Jump-In HEK cells (membrane preparation)
- Sequence (P28223 whole entry): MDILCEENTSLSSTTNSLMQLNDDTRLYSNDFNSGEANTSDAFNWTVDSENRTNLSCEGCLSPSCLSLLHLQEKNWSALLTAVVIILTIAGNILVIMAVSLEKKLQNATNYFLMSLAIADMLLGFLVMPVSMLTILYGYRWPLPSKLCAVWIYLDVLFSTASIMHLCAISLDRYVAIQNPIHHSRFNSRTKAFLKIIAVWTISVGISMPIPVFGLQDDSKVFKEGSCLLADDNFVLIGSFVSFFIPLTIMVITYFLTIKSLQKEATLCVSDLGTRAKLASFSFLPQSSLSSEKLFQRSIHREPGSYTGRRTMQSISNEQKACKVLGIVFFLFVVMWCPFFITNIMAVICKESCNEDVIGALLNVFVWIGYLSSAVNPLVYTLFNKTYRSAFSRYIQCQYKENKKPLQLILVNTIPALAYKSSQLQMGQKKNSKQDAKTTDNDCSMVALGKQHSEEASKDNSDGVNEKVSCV
- method: Test Example 1-2: 5-HT2A receptor binding inhibition test ([3H]-Ketanserin; non-specific ligand Ketanserin)
- conditionLabel: [3H]-Ketanserin; non-specific binding with 500 µmol/L Ketanserin; room temperature (25°C), 1.5 hours; read-out: h 5-HT2A Ki
pKi: −log10 of the molar value.
endpointName: pKi

>  <compound>
Cn1ncc(Br)c1-c1nc(Nc2ccc(OC(F)F)cc2)ncc1OCCO

>  <readoutValue>
9.75

$$$$
>  <compound>
Cn1ncc(Br)c1-c1nc(Nc2ccc(OC(F)(F)F)cn2)c(F)cc1OCCO

>  <readoutValue>
9.51

$$$$
>  <compound>
Cc1nc(C)c(-c2cc(Nc3ccc(Oc4ccc(F)cc4)cn3)ncc2OCCO)c(C)n1

>  <readoutValue>
9.24

$$$$
>  <compound>
Cc1cnc(Nc2ccc(OCCO)c(-c3c(Br)cnn3C)c2)c(F)c1

>  <readoutValue>
9.77

$$$$
>  <compound>
Cc1cnn(C)c1-c1cc(Nc2ccc(OC(F)(F)F)cn2)ncc1OCCO

>  <readoutValue>
9.59

$$$$
>  <compound>
Cc1nc(C2CCO2)nc(C)c1-c1cc(Nc2ncc(C(F)(F)F)cc2Cl)ncc1OCCO (racemic)

>  <readoutValue>
8.74

$$$$
>  <compound>
Cn1ncc(Br)c1-c1cc(Nc2ccc(C(F)F)cn2)ccc1OCCO

>  <readoutValue>
9.71

$$$$
>  <compound>
Cn1ncc(Br)c1-c1cc(Nc2ccc(C(C)(F)F)cn2)ccc1OCCO

>  <readoutValue>
9.35

$$$$
>  <compound>
Cn1ncc(Br)c1-c1cc(Nc2ncc(C3CC3)cn2)cnc1OCCO

>  <readoutValue>
9.49

$$$$
>  <compound>
Cc1nc(C2CCCO2)nc(C)c1-c1cc(Nc2ncc(C(F)(F)F)cc2F)ncc1OCCO (racemic)

>  <readoutValue>
8.28

$$$$
>  <compound>
COc1cnc(Nc2ccc(OCCO)c(-c3c(Br)cnn3C)c2)c(F)c1

>  <readoutValue>
9.53

$$$$
>  <compound>
Cc1cc(Nc2ncc(OCCO)c(-c3c(Br)cnn3C)n2)ccc1Cl

>  <readoutValue>
9.67

$$$$
>  <compound>
Cc1nc(C(F)F)nc(C)c1-c1cc(Nc2ncc(C(F)(F)F)cc2Cl)ncc1OCCO

>  <readoutValue>
9.06

$$$$
>  <compound>
Cc1cc(OC(F)F)cnc1Nc1cc(-c2c(Br)cnn2C)c(OCCO)cn1

>  <readoutValue>
9.48

$$$$
>  <compound>
Cn1ncc(Br)c1-c1cc(Nc2ncc(Cl)cn2)ncc1OCCO

>  <readoutValue>
9.66

$$$$
>  <compound>
COCc1nc(C)c(-c2cc(Nc3ncc(Br)cc3Cl)ncc2OCCO)c(C)n1

>  <readoutValue>
8.67

$$$$
>  <compound>
Cn1ncc(Cl)c1-c1cc(Nc2ncc(OC(F)F)cc2F)ncc1OCCO

>  <readoutValue>
9.77

$$$$
